target_system: Bromodomain-containing protein 4 (Homo sapiens, UniProt O60885)
protocol_summary: Inhibition of halo-tagged BRD4 (unknown origin) expressed in HEK293 cells incubated for 4 hrs by biosensor assay
Some compounds, each annotated with its measured EC50.
The response must be a number in nM with no trailing unit.

Consider the following illustrative entries.
* C[C@H]1C(=O)N(C)C=Cc2cc(OCCCCCCCOc3ccc4c(c3)C=CN(C)C(=O)[C@@H]4C)ccc21 | 3.98
* CC1C(=O)N(C)C=Cc2ccc(OCCCCCCOc3ccc4c(c3)C(C)C(=O)N(C)C=C4)cc21 (centres undefined) | 1000

State the recorded EC50 for this entry: C[C@H]1C(=O)N(C)C=Cc2cc(CN3CCN(Cc4ccc5c(c4)C=CN(C)C(=O)[C@@H]5C)CC3)ccc21
2

Here is the next compound: C[C@H]1C(=O)N(C)C=Cc2cc(OCCOc3ccc4c(c3)C=CN(C)C(=O)[C@@H]4C)ccc21
1.26

====

Some compounds, each annotated with its measured log10 IC50.
target_system: Bromodomain-containing protein 4 (Homo sapiens)
protocol_summary: Inhibition of BRD4 BD1 (unknown origin) by TR-FRET assay
Kindly note that the scale is log10 and the underlying IC50 is in nM.

Consider the following illustrative entries.
* C[C@H]1C(=O)N(C)C=Cc2cc(OCCCCOc3ccc4c(c3)C=CN(C)C(=O)[C@@H]4C)ccc21 | 0.50
* C[C@H]1C(=O)N(C)C=Cc2cc(OCCOc3ccc4c(c3)C=CN(C)C(=O)[C@@H]4C)ccc21 | 1.80

State the recorded log10 IC50 for this entry: C[C@H]1C(=O)N(C)C=Cc2cc(OCCCCCCCOc3ccc4c(c3)C=CN(C)C(=O)[C@@H]4C)ccc21
1.90

Here is the next compound: C[C@H]1C(=O)N(C)C=Cc2cc(CN3CCN(Cc4ccc5c(c4)C=CN(C)C(=O)[C@@H]5C)CC3)ccc21
1.20

Here is the next compound: COc1nnc2ccc(N3CCC(c4ccc(OCCN5CCN(C)C(=O)[C@H]5C)cc4)CC3)nn12
2.60

====

Some molecules, each annotated with its measured pIC50.
target_system: UniProt:P13500
Sequence (P13500 whole entry): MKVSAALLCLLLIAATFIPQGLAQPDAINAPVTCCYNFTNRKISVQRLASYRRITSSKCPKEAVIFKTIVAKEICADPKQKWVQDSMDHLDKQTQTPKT
protocol_summary: Inhibition of MCP-1 in LPS-stimulated human PBMC cells pretreated with compound for 30 mins followed by LPS-stimulation and measured after 10 mins by microplate analysis
Assay type: cell-based
Quick note: pIC50 values are minus log10 of concentrations in mol/L.

• COc1cc2c(cc1OC)[C@@H](C)C(=O)N(C)C=C2 = 7.30

Record C[C@@H]1C(=O)N(C)CCN1CCOc1ccc(C2CCN(c3ccc4nncn4n3)CC2)cc1 : what is its pIC50 with UniProt:P13500?
6.70

====

protocol_summary: Solubility of compound in simulated lung fluid at pH 6.9
Type: physicochemical
measure_name: solubility (µg/mL)
The response must be a number in µg/mL with no trailing unit.

• C[C@H]1C(=O)N(C)C=Cc2cc(OCCCCOc3ccc4c(c3)C=CN(C)C(=O)[C@@H]4C)ccc21 = 2

Now consider a different compound.
State the recorded solubility for this entry: C[C@H]1C(=O)N(C)C=Cc2cc(CN3CCN(Cc4ccc5c(c4)C=CN(C)C(=O)[C@@H]5C)CC3)ccc21
465

====

target_system: Bromodomain-containing protein 4 (Homo sapiens)
protocol_summary: Inhibition of histone binding to BRD4 (unknown origin) expressed in HEK293 cells using histone H3.3 as substrate incubated for 18 to 24 hrs by nano-BRET analysis
Type: cell-based
pIC50: −log10 of the molar value.
Classification field: 1 = pIC50 at or over 9; -1 = pIC50 under 9.

Reported pIC50 at or above 9? CC1C(=O)N(C)C=Cc2ccc(OCCCCCCOc3ccc4c(c3)C(C)C(=O)N(C)C=C4)cc21 (centres undefined)
-1

Here is the next compound: C[C@H]1C(=O)N(C)C=Cc2cc(CN3CCN(Cc4ccc5c(c4)C=CN(C)C(=O)[C@@H]5C)CC3)ccc21
1

Here is the next compound: C[C@H]1C(=O)N(C)C=Cc2cc(OCCCOc3ccc4c(c3)C=CN(C)C(=O)[C@@H]4C)ccc21
-1

Here is the next compound: C[C@H]1C(=O)N(C)C=Cc2cc(OCCCCOc3ccc4c(c3)C=CN(C)C(=O)[C@@H]4C)ccc21
1

Here is the next compound: COc1nnc2ccc(N3CCC(c4ccc(OCCN5CCN(C)C(=O)[C@H]5C)cc4)CC3)nn12 [AZD-5153]
-1

Here is the next compound: C[C@@H]1C(=O)N(C)CCN1CCOc1ccc(C2CCN(c3ccc4nncn4n3)CC2)cc1
-1

Origin of values: ChEMBL document CHEMBL5365519
